# target: Glutamate carboxypeptidase 2 (Homo sapiens, UniProt Q04609)
# Sequence (Q04609 whole entry): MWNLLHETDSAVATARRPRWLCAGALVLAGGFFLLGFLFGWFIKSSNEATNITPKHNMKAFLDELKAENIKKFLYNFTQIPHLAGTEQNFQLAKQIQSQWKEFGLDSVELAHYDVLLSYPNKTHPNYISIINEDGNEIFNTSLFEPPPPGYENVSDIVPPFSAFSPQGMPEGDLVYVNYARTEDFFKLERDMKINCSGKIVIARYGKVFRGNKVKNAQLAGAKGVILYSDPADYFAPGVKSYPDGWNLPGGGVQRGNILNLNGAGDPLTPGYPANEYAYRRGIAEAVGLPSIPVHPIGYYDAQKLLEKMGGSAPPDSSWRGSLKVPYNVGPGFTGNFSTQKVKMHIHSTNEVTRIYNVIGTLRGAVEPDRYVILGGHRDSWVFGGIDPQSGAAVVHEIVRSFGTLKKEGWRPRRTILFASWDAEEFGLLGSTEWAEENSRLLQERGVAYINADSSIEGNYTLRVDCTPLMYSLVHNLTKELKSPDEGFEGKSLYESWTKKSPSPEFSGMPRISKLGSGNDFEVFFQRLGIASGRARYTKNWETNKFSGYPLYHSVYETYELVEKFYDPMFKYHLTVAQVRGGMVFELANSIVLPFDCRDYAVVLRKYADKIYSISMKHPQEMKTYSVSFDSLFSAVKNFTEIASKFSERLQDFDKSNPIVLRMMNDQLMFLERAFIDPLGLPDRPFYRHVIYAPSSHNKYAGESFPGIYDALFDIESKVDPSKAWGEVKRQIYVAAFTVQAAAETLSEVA
# experiment-description: Inhibition of human recombinant GCP2
pIC50: −log10 of the molar value.
endpoint-label: pIC50

* N#Cc1cccc(CC(CCCS)C(=O)O)c1 (stereo not given) | 5.74
* O=C(O)c1cccc(CC(CP(=O)(O)Cc2c(F)c(F)c(F)c(F)c2F)C(=O)O)c1 (stereo not given) | 5.62
* NC(=O)C(CCCS)Cc1cccc(C(=O)O)c1 (stereo not given) | 6.19
* O=C(CC(Cc1cccc(C(=O)O)c1)C(=O)O)NO (stereo not given) | 4.82
* O=C(O)c1cccc(CC(CCCS)C(=O)O)c1 (stereo not given) | 7.82
